System: CAL-120
methodDescription: normalised viability (% of control), CellTiter-Blue; higher = more viable cells (100 = DMSO, 0 = benzethonium chloride kill control)
measurementParameters: incubation time: 72 h
Labelling: normalised viability reported below 90% becomes Condition met; at or above becomes Condition not met.

[[record]]
compound = "COc1ncc(-c2ccc3nccc(-c4ccnnc4)c3c2)cc1NS(=O)(=O)c1ccc(F)cc1F (0.1 nM)"
answerlabel = "Condition met"

[[record]]
compound = "O=c1[nH]cc(F)c(=O)[nH]1 [Fluorouracil] (1 nM)"
answerlabel = "Condition not met"

[[record]]
compound = "CC(C)C[C@H](NC(=O)[C@H](Cc1ccccc1)NC(=O)c1cnccn1)B(O)O [Bortezomib] (0.1 nM)"
answerlabel = "Condition not met"

[[record]]
compound = "COC1=CC(c2cc3ccccc3[nH]2)=N/C1=C\\c1[nH]c(C)cc1C [Obatoclax] (1 nM)"
answerlabel = "Condition met"

[[record]]
compound = "CCOc1cc2ncc(C#N)c(Nc3ccc(OCc4ccccn4)c(Cl)c3)c2cc1NC(=O)/C=C/CN(C)C [Neratinib] (0.1 nM)"
answerlabel = "Condition met"

[[record]]
compound = "C[C@@H]1C=C2C(=O)O[C@@H]3CC[C@H](C1)[C@]23O [Galiellalactone] (5 nM)"
answerlabel = "Condition met"

[[record]]
compound = "COc1c(C)cnc(Cn2cnc3c(Cl)nc(N)nc32)c1C [BIIB021] (1 nM)"
answerlabel = "Condition met"


* * *

Test system: MDA-MB-436
methodDescription: normalised response (% of control), CellTox Green; higher = less cell death (100 = DMSO, 0 = benzethonium chloride kill control)
measurementParameters: incubation time: 72 h
quantityName: normalised response

[[record]]
molecule = "CN1CCN(c2ccc3nc(-c4c(N)c5c(F)cccc5[nH]c4=O)[nH]c3c2)CC1 [Dovitinib] (10000 nM)"
recordedmeasurement = "108%"

[[record]]
molecule = "FC(F)c1nc2ccccc2n1-c1nc(N2CCOCC2)nc(N2CCOCC2)n1 [ZSTK474] (100 nM)"
recordedmeasurement = "101%"

[[record]]
molecule = "FC(F)c1nc2ccccc2n1-c1nc(N2CCOCC2)nc(N2CCOCC2)n1 [ZSTK474] (1000 nM)"
recordedmeasurement = "85.9%"

[[record]]
molecule = "COc1cccc2c1C(=O)c1c(O)c3c(c(O)c1C2=O)C[C@@](O)(C(C)=O)C[C@@H]3O[C@H]1C[C@H](N)[C@H](O)[C@H](C)O1 [Daunorubicin] (100 nM)"
recordedmeasurement = "98.2%"

[[record]]
molecule = "COc1ccc(C2=N[C@@H](c3ccc(Cl)cc3)[C@@H](c3ccc(Cl)cc3)N2C(=O)N2CCNC(=O)C2)c(OC(C)C)c1 [Nutlin-3] (100 nM)"
recordedmeasurement = "64%"

[[record]]
molecule = "Cn1cnc2c(F)c(Nc3ccc(Br)cc3F)c(C(=O)NOCCO)cc21 [MEK-162] (1000 nM)"
recordedmeasurement = "79.9%"

[[record]]
molecule = "CCOc1cc2ncc(C#N)c(Nc3ccc(OCc4ccccn4)c(Cl)c3)c2cc1NC(=O)/C=C/CN(C)C [Neratinib] (1000 nM)"
recordedmeasurement = "104%"


* * *

System: HCC1599
methodDescription: normalised response (% of control), CellTiter-Glo; higher = more viable cells (100 = DMSO, 0 = benzethonium chloride kill control)
measurementParameters: incubation time: 72 h
Values of normalised response greater than or equal to 90% map to 1.0; values below map to 0.0.

[[record]]
compound = "Cc1cc(C(C)Nc2ccccc2)c2nc(N3CCOCC3)cc(=O)n2c1 (configuration not stated) [TGX-221] (100 nM)"
targetortestsystem = "HCC1599"
answerlabel = 1.0

[[record]]
compound = "C#Cc1cccc(Nc2ncnc3cc(OC)c(OCCCCCCC(=O)NO)cc23)c1 [CUDC-101] (100 nM)"
targetortestsystem = "HCC1599"
answerlabel = 1.0

[[record]]
compound = "CCS(=O)(=O)c1cccc(-c2cc(C(=O)NC3CCN(C)CC3)c(C)c3[nH]c4ncc(C)cc4c23)c1 [TAK-901] (10 nM)"
targetortestsystem = "HCC1599"
answerlabel = 1.0

[[record]]
compound = "CN1CCN(c2ccc3nc(-c4c(N)c5c(F)cccc5[nH]c4=O)[nH]c3c2)CC1 [Dovitinib] (100 nM)"
targetortestsystem = "HCC1599"
answerlabel = 1.0

[[record]]
compound = "CS(=O)(=O)OCCCCOS(C)(=O)=O [Busulfan] (1000 nM)"
targetortestsystem = "HCC1599"
answerlabel = 1.0

[[record]]
compound = "COC(=O)C[C@](O)(CCCC(C)(C)O)C(=O)O[C@@H]1C(OC)=C[C@]23CCCN2CCc2cc4c(cc2[C@H]13)OCO4 [Omacetaxine] (100 nM)"
targetortestsystem = "HCC1599"
answerlabel = 0.0


Attribution: the supplement of paper PMC4862054
